# Tested on: ZR-75-1
# protocol: Cell viability assay, ZR-75-1
# Type: cell-based
# conditions: Homo sapiens; breast carcinoma cell line ZR-75-1
pIC50: −log10 of the molar value.
result_type: pIC50

| smiles_string | assayed_system | result_type | obs_value |
| --- | --- | --- | --- |
| COc1c(O)ccc2c(=O)c(O)c(-c3ccc(CCCC[P+](c4ccccc4)(c4ccccc4)c4ccccc4)cc3)oc12 | ZR-75-1 | pIC50 | 5.46 |

###

# Test system: HL-60
# protocol: Cell viability assay, HL-60
# Assay type: cell-based
# conditions: leukaemia cell line HL-60; read-out: IC50
pIC50: −log10 of the molar value.

| smiles_string | pIC50 |
| --- | --- |
| O=c1cc(-c2ccc(CCC[P+](c3ccccc3)(c3ccccc3)c3ccccc3)cc2)oc2c(O)c(O)ccc12 | 6.52 |

###

# Test system: CALU-6
# protocol: Cell viability assay, CALU-6
# Type: cell-based
# conditions: Homo sapiens; lung carcinoma cell line CALU-6
# Method: Antitumor activity of the compounds and doxorubicin as a positive control was assessed by using the CellTiter-Blue Cell Viability Assay (Promega, #G8082) or CellTiter-Glow® Luminescent Cell Viability assay (Promega #G7572) according to the manufacturer's instructions. The compounds were tested at 5 or 6 concentrations in half-log increments (highest concentration 30 μM or 100 μM) in duplicate or triplicate well conditions. […]
pIC50: −log10 of the molar value.
result_type: pIC50

| compound | result_type | obs_value |
| --- | --- | --- |
| COc1c(O)ccc2c(=O)c(O)c(-c3ccc(CCCC[P+](c4ccccc4)(c4ccccc4)c4ccccc4)cc3)oc12 [SND190] | pIC50 | 5.62 |

###

# Test system: 22Rv1
# protocol: Cell viability assay, 22Rv1
# Format: cell-based
# conditions: Homo sapiens; prostate carcinoma cell line 22Rv1

| smiles_string | IC50 |
| --- | --- |
| COc1c(O)ccc2c(=O)c(O)c(-c3ccc(CCCC[P+](c4ccccc4)(c4ccccc4)c4ccccc4)cc3)oc12 | 790 nM |

###

# Tested on: BR-05-0014E
# protocol: Cell viability, breast PDX BR-05-0014E
# Type: cell-based

| smiles_string | display_unit | IC50 |
| --- | --- | --- |
| O=c1cc(-c2ccc(CCC[P+](c3ccccc3)(c3ccccc3)c3ccccc3)cc2)oc2c(O)c(O)ccc12 | µM | 19 |
| COc1c(O)ccc2c(=O)c(O)c(-c3ccc(CCCC[P+](c4ccccc4)(c4ccccc4)c4ccccc4)cc3)oc12 | µM | 6.6 |

###

# Test system: breast PDX
# protocol: Cell viability, breast PDX (panel statement)
# Format: cell-based
# conditions: Table 5; read-out: IC50, growth of breast PDX
pIC50: −log10 of the molar value.

| smiles_string | assayed_system | pIC50 |
| --- | --- | --- |
| COc1c(O)ccc2c(=O)c(O)c(-c3ccc(CCCC[P+](c4ccccc4)(c4ccccc4)c4ccccc4)cc3)oc12 | breast PDX | > 4.70 |

###

# System: HT-29
# protocol: Cell viability assay, HT-29
# Format: cell-based
# conditions: Homo sapiens; colon carcinoma cell line HT-29
result_type: IC50 (µM)

| smiles_string | result_type | display_unit | obs_value |
| --- | --- | --- | --- |
| COc1c(O)ccc2c(=O)c(O)c(-c3ccc(CCCC[P+](c4ccccc4)(c4ccccc4)c4ccccc4)cc3)oc12 | IC50 | µM | 5.78 |

###

# Test system: ES-06-0122
# protocol: Cell viability, esophagus PDX ES-06-0122
# Format: cell-based
In this section we review reported IC50 values for a set of molecules.
result_type: IC50 (µM)

| smiles_string | assayed_system | obs_value |
| --- | --- | --- |
| COc1c(O)ccc2c(=O)c(O)c(-c3ccc(CCCC[P+](c4ccccc4)(c4ccccc4)c4ccccc4)cc3)oc12 | ES-06-0122 | 6.5 |
| O=c1cc(-c2ccc(CCC[P+](c3ccccc3)(c3ccccc3)c3ccccc3)cc2)oc2c(O)c(O)ccc12 | ES-06-0122 | 8.8 |

###

# assayed_system: KIT(D816V) (Homo sapiens, UniProt P10721, D816V)
# Sequence (P10721 26-976 D816V): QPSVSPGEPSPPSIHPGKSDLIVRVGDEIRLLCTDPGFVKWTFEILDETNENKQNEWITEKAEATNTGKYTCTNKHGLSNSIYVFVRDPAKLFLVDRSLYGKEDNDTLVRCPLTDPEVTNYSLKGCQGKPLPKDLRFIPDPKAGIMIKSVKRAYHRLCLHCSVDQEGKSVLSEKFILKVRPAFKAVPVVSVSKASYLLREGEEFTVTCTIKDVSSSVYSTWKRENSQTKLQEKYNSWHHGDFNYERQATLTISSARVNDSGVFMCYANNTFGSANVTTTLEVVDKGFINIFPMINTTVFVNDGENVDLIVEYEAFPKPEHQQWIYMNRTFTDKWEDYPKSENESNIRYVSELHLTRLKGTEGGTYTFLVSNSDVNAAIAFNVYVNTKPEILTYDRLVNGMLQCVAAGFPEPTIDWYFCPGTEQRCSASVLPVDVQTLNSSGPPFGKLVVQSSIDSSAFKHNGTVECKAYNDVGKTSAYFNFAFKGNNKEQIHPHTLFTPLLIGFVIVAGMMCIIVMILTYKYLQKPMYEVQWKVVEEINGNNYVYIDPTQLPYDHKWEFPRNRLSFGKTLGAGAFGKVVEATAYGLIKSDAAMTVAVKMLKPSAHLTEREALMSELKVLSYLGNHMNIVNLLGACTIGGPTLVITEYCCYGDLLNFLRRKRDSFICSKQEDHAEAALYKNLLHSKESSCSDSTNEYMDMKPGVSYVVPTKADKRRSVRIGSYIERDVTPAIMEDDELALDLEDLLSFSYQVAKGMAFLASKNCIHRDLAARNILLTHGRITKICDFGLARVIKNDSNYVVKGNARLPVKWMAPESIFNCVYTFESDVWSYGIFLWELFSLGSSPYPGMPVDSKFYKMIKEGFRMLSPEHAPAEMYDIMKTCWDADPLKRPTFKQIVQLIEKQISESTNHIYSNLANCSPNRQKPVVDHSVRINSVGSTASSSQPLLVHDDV
# protocol: KINOMEscan competition binding, KIT(D816V)

| compound | display_unit | Kd |
| --- | --- | --- |
| COc1c(O)ccc2c(=O)c(O)c(-c3ccc(CCCC[P+](c4ccccc4)(c4ccccc4)c4ccccc4)cc3)oc12 [SND190] | nM | 930 |

###

# Test system: lung PDX
# protocol: Cell viability, lung PDX (panel statement)
# Assay type: cell-based
# conditions: text summary of Table 15; read-out: IC50, lung PDX growth
result_type: IC50

| smiles_string | assayed_system | obs_value |
| --- | --- | --- |
| COc1c(O)ccc2c(=O)c(O)c(-c3ccc(CCCC[P+](c4ccccc4)(c4ccccc4)c4ccccc4)cc3)oc12 | lung PDX | < 20 µM |

###

# assayed_system: TRKA (Homo sapiens, UniProt P04629)
# Sequence (P04629 33-796): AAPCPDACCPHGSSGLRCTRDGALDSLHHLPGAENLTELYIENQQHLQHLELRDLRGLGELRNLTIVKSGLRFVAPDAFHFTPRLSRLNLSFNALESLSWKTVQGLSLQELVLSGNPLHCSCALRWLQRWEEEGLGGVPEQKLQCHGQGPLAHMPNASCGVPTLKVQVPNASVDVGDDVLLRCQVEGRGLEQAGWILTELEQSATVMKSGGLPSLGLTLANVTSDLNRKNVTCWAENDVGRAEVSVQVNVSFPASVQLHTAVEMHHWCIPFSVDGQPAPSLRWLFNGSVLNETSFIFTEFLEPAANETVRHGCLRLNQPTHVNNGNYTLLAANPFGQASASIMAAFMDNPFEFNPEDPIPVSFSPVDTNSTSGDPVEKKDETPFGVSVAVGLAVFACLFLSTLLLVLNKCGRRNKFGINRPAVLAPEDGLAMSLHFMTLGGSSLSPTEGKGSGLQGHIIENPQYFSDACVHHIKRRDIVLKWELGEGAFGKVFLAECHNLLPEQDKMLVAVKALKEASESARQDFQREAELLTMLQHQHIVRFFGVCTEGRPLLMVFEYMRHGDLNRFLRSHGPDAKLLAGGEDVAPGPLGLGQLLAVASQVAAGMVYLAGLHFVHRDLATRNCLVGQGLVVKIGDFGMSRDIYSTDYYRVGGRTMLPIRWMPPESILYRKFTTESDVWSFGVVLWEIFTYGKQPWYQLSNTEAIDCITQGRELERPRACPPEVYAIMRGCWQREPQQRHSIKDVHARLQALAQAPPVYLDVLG

| compound | display_unit | Kd |
| --- | --- | --- |
| COc1c(O)ccc2c(=O)c(O)c(-c3ccc(CCCC[P+](c4ccccc4)(c4ccccc4)c4ccccc4)cc3)oc12 [SND190] | nM | 2300 |

###

# System: SH-SY-5Y
# protocol: Cell viability assay, SH-SY-5Y
# Type: cell-based
# conditions: Homo sapiens, SH-SY5Y; brain carcinoma cell line SH-SY-5Y
pIC50: −log10 of the molar value.

| molecule | pIC50 |
| --- | --- |
| COc1c(O)ccc2c(=O)c(O)c(-c3ccc(CCCC[P+](c4ccccc4)(c4ccccc4)c4ccccc4)cc3)oc12 [SND190] | 5.59 |

###

In this section we review reported pIC50 values for a set of molecules.
# Test system: PC-07-0045
# protocol: Cell viability, pancreatic PDX PC-07-0045
# Format: cell-based
pIC50: −log10 of the molar value.

| smiles_string | pIC50 |
| --- | --- |
| O=c1cc(-c2ccc(CCC[P+](c3ccccc3)(c3ccccc3)c3ccccc3)cc2)oc2c(O)c(O)ccc12 | 5.64 |
| COc1c(O)ccc2c(=O)c(O)c(-c3ccc(CCCC[P+](c4ccccc4)(c4ccccc4)c4ccccc4)cc3)oc12 | 5.47 |

###

# Tested on: MCF-7
# protocol: Cell viability assay, MCF-7
# Type: cell-based
# conditions: breast carcinoma cell line MCF-7
pIC50: −log10 of the molar value.
result_type: pIC50

| smiles_string | obs_value |
| --- | --- |
| O=c1cc(-c2ccc(CCC[P+](c3ccccc3)(c3ccccc3)c3ccccc3)cc2)oc2c(O)c(O)ccc12 | 5.77 |

###

# System: ST-02-0173
# protocol: Cell viability, stomach PDX ST-02-0173
# Format: cell-based
# Description: PDX-derived cell cultures were obtained from tumors explanted from mice and isolated by mechanical and enzymatic dissociation. […] Cells were harvested and seeded in 96-wells plates at a density of 1.25 to 5×10^3 cells/well for cytotoxicity assays. […] Cell viability was assessed before drugs' addition (To) and 5 days after test molecules addition by measuring ATP cell content using CellTiter-Glo® Luminescent Cell Viability Assay (Promega) according to the manufacturer's instructions. […]

| molecule | assayed_system | IC50 |
| --- | --- | --- |
| COc1c(O)ccc2c(=O)c(O)c(-c3ccc(CCCC[P+](c4ccccc4)(c4ccccc4)c4ccccc4)cc3)oc12 [SND190] | ST-02-0173 | 11 µM |
| O=c1cc(-c2ccc(CCC[P+](c3ccccc3)(c3ccccc3)c3ccccc3)cc2)oc2c(O)c(O)ccc12 [SND200] | ST-02-0173 | 15.5 µM |

###

# Test system: H69AR
# protocol: Cell viability assay, H69AR
# Assay type: cell-based
# conditions: SCLC doxorubicin resistant cell line H69AR
result_type: IC50

| smiles_string | assayed_system | obs_value |
| --- | --- | --- |
| O=c1cc(-c2ccc(CCC[P+](c3ccccc3)(c3ccccc3)c3ccccc3)cc2)oc2c(O)c(O)ccc12 | H69AR | 4 to 25 µM |

###

# Tested on: KM-12
# protocol: Cell viability assay, KM-12
# Assay type: cell-based
# conditions: colon carcinoma cell line KM-12
pIC50: −log10 of the molar value.

| smiles_string | pIC50 |
| --- | --- |
| O=c1cc(-c2ccc(CCC[P+](c3ccccc3)(c3ccccc3)c3ccccc3)cc2)oc2c(O)c(O)ccc12 | 6.36 |

###

# Tested on: LU-01-0027
# protocol: Cell viability, lung PDX LU-01-0027
# Format: cell-based
pIC50: −log10 of the molar value.
In this section we review reported pIC50 values for a set of molecules.

| molecule | pIC50 |
| --- | --- |
| COc1c(O)ccc2c(=O)c(O)c(-c3ccc(CCCC[P+](c4ccccc4)(c4ccccc4)c4ccccc4)cc3)oc12 [SND190] | 5.40 |
| O=c1cc(-c2ccc(CCC[P+](c3ccccc3)(c3ccccc3)c3ccccc3)cc2)oc2c(O)c(O)ccc12 [SND200] | 5.74 |
